The reported measurements were obtained from ChEMBL document CHEMBL2401712.

Target: Metabotropic glutamate receptor 5 (Homo sapiens, UniProt P41594)
Assay: Positive allosteric modulation of human mGlu5 receptor expressed in HEK293 cells assessed as potentiation of L-glutamate-induced activity after 1 hr by FLIPR assay relative to control
Assay type: cell-based
Sequence (P41594 21-1212 limits assumed): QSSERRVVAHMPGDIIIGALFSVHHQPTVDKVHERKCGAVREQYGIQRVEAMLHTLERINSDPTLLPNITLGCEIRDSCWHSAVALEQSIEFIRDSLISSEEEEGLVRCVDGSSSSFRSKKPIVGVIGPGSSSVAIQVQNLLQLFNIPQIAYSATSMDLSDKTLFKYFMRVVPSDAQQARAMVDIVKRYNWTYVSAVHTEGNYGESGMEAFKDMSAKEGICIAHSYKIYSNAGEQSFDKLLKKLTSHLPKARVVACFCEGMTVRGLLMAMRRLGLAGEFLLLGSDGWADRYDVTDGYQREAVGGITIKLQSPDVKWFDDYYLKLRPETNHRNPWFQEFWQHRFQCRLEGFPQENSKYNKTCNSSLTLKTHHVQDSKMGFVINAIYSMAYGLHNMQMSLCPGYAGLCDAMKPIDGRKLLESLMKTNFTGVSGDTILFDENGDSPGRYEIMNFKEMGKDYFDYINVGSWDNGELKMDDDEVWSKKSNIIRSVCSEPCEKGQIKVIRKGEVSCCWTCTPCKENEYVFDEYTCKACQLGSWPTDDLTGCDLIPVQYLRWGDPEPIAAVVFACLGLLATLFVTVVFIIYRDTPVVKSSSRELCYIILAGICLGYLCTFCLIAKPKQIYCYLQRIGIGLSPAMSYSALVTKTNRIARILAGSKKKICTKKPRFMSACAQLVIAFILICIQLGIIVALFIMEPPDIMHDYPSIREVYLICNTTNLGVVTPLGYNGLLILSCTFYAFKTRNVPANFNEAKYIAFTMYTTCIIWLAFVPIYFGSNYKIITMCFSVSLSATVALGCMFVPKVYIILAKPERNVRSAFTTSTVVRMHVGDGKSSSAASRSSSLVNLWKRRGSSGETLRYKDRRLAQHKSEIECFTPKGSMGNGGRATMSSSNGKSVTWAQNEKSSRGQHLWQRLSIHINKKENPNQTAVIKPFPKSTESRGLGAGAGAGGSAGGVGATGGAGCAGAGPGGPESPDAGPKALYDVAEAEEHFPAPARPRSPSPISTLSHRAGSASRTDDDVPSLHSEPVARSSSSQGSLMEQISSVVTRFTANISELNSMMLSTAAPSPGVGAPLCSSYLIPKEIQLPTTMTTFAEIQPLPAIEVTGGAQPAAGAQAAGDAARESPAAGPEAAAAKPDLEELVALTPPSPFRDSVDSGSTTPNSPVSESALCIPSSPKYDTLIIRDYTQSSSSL
Endpoint Label: Emax (%)

Consider the reported Emax for these molecules:
[[record]]
molecule = "O=C(C1CCCC1)N1CCc2nc(C#Cc3ccccc3)sc2C1"
endpoint_label = "Emax"
reported_value = 280

[[record]]
molecule = "O=C(C1CC(F)C1)N1CCc2nc(C#Cc3ccccc3)sc2C1 (stereo unspecified)"
endpoint_label = "Emax"
reported_value = 61

[[record]]
molecule = "Cc1cccc(C(=O)N2CCc3nc(C#Cc4ccccc4)sc3C2)n1"
endpoint_label = "Emax"
reported_value = 120

[[record]]
molecule = "O=C1c2sc(C#Cc3ccccc3)nc2CN1C1CCCC1"
endpoint_label = "Emax"
reported_value = 150


(P) O=C1c2sc(C#Cc3ccccc3)nc2CN1C1CC1
(Q) CN1CCc2nc(C#Cc3ccccc3)sc2C1=O
Hi there! Just curious which has the higher Emax between P and Q . Returns: label corresponding to the selected item.
Q

====

Target: Metabotropic glutamate receptor 5 (Homo sapiens, UniProt P41594)
Assay: Positive allosteric modulation of human mGlu5 receptor expressed in HEK293 cells assessed as potentiation of L-glutamate-induced activity after 1 hr by FLIPR assay
Format: cell-based
Sequence (P41594 whole entry): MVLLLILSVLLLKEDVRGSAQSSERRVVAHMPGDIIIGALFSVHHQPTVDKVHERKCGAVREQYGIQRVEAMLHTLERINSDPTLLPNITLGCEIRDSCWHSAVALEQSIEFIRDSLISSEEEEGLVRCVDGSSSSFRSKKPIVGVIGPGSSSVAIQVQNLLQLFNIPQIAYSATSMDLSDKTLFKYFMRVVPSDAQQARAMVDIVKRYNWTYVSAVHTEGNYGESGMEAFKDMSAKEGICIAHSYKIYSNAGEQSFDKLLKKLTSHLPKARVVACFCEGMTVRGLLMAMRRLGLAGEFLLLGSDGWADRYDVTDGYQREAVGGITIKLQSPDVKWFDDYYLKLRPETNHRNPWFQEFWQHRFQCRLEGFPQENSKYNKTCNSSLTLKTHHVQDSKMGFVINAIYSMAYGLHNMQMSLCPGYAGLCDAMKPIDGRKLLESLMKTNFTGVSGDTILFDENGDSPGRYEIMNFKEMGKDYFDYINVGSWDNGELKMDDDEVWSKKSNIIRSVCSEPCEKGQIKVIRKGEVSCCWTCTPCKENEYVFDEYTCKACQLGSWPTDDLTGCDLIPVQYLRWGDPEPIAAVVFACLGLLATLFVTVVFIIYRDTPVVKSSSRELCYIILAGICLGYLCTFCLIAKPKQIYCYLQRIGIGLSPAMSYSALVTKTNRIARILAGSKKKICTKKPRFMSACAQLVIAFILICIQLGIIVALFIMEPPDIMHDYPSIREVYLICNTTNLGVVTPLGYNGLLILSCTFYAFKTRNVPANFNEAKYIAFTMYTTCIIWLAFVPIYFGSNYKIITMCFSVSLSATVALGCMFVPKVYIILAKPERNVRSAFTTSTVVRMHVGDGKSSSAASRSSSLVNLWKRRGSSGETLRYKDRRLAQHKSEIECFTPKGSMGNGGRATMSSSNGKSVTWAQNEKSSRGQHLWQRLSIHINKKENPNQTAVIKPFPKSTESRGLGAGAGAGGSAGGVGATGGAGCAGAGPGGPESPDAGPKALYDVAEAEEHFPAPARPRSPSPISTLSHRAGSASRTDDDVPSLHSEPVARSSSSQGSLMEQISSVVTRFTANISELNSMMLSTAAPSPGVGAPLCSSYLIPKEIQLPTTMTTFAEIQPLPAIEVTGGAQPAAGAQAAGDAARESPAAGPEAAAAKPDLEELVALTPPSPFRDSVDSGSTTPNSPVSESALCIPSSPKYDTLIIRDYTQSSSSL
pEC50: −log10 of the molar value.
Endpoint Label: pEC50

(1) O=C(N1CCc2nc(C#Cc3ccccc3)sc2C1)N1CC(F)(F)C1
(2) O=C(N1CCCCC1)N1CCc2nc(C#Cc3ccccc3)sc2C1
Hey, between 1 and 2 which has a smaller measured pEC50? Which one? Tell me its label.
2

(I) COc1cccc(C(=O)N2CCc3nc(C#Cc4ccccc4)sc3C2)c1
(II) O=C1NCCc2nc(C#Cc3cccc(F)c3)sc21
(III) O=C(C1CC(F)(F)C1)N1CCc2nc(C#Cc3cccc(F)c3)sc2C1
Sort ascending by pEC50. Provide your answer as the labels ordered per the instruction.
II, I, III
(II: 6.54, I: 7.54, III: 8.60)

(I) O=C(C1CCOCC1)N1CCc2nc(C#Cc3ccccc3)sc2C1
(II) O=C(CC1CCOCC1)N1CCc2nc(C#Cc3ccccc3)sc2C1
(III) CCCCN1CCc2nc(C#Cc3ccccc3)sc2C1
Arrange these molecules by their pEC50, starting with the largest number. Order the labels as requested and list them.
III, I, II
(III: 6.96, I: 6.54, II: 6.33)

====

Molecular target: Metabotropic glutamate receptor 5 (Homo sapiens, UniProt P41594)
Assay: Positive allosteric modulation of human mGlu5 receptor expressed in HEK293 cells assessed as potentiation of L-glutamate-induced activity after 1 hr by FLIPR assay relative to control
Assay type: cell-based
Endpoint Label: Emax (%)

Known Emax results, listed for orientation:
[[record]]
compound = "O=S(=O)(C1CCCCC1)N1Cc2nc(C#Cc3ccccc3)sc2C1"
endpoint_label = "Emax"
reported_value = 110

[[record]]
compound = "COc1cccc(C(=O)N2CCc3nc(C#Cc4ccccc4)sc3C2)c1"
endpoint_label = "Emax"
reported_value = 150

[[record]]
compound = "O=C1NCCc2nc(C#Cc3ccc(F)cc3)sc21"
endpoint_label = "Emax"
reported_value = 310

[[record]]
compound = "CC(C)CCN1CCc2nc(C#Cc3ccccc3)sc2C1"
endpoint_label = "Emax"
reported_value = 180

[[record]]
compound = "O=C(N1CCC(F)CC1)N1CCc2nc(C#Cc3ccccc3)sc2C1"
endpoint_label = "Emax"
reported_value = 100


(A) O=C(C1CC12CCC2)N1CCc2nc(C#Cc3ccccc3)sc2C1 (centres undefined)
(B) O=C(C1CCCCC1)N1CCc2nc(C#Cc3ccccc3)sc2C1
(C) CN1CCc2nc(C#Cc3cccc(F)c3)sc2C1
(D) CC(C)S(=O)(=O)N1Cc2nc(C#Cc3ccccc3)sc2C1
(E) Cc1cccc(C#Cc2nc3c(s2)C(=O)NCC3)c1
// ascending sort on recorded Emax Ranked list of labels, please, in the requested order.
D, C, E, A, B

(A) O=C(C1CCC(F)(F)CC1)N1CCc2nc(C#Cc3ccccc3)sc2C1
(B) CC1CCC(C(=O)N2CCc3nc(C#Cc4ccccc4)sc3C2)CC1 (centres undefined)
I'm curious whether A or B has the smaller Emax number. Which is it? Field: selected label. Fill in the label of the entry you choose.
B

(1) CN1CCc2nc(C#Cc3ccccc3)sc2C1
(2) O=C(C1CCC1)N1CCc2nc(C#Cc3ccccc3)sc2C1
(3) O=S(=O)(N1CCCCC1)N1CCc2nc(C#Cc3ccccc3)sc2C1
(4) O=C(C1CC(F)(F)C1)N1CCc2nc(C#Cc3ccc(F)cc3)sc2C1
Arrange these 4 compounds in increasing order of Emax. Use the labels to give the requested order.
2, 3, 4, 1
(2: 3%, 3: 6%, 4: 73%, 1: 110%)

(P) CC1CC(C(=O)N2CCc3nc(C#Cc4cccc(F)c4)sc3C2)C1 (centres undefined)
(Q) O=C(C1CC1)N1CCc2nc(C#Cc3ccccc3)sc2C1
Lower value of Emax belongs to which: P or Q ? Reply briefly: the label of your chosen item.
Q
(Q: -13%, P: 87%)
